The measurements presented in this section are drawn from patent US8871765B2.

- Assay Target: PARP-1 (Homo sapiens, UniProt P09874)
- Construct: purchased Trevigen
- Sequence (P09874 whole entry): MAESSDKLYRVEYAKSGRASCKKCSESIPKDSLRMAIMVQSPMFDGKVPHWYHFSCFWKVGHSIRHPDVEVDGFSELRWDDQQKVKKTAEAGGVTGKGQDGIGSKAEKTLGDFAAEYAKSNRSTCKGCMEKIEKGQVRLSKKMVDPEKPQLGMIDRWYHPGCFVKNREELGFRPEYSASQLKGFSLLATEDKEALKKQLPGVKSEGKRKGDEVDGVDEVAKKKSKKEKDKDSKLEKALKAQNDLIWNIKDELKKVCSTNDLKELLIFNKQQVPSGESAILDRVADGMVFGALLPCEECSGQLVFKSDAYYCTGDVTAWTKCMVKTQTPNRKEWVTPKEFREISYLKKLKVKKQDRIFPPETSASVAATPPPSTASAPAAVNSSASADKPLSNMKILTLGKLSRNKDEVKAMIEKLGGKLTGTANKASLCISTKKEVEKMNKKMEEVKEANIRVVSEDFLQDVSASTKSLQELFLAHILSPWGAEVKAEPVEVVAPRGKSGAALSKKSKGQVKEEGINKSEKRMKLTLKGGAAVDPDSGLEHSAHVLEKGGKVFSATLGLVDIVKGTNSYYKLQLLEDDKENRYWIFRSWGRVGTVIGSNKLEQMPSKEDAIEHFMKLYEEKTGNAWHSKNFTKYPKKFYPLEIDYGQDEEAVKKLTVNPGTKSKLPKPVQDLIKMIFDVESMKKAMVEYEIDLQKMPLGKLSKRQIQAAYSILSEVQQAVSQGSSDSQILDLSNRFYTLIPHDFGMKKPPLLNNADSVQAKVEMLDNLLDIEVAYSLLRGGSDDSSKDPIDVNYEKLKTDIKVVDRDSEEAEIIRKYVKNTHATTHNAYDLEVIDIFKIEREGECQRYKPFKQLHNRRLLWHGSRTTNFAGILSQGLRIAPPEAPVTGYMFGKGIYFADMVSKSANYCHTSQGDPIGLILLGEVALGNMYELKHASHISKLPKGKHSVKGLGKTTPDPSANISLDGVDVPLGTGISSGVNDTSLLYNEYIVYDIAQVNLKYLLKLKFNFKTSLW
- Assay Name: PARP-1 inhibitory activity, HT universal colorimetric PARP assay kit (Trevigen)
- Type: biochemical
- Details: HT universal colorimetric PARP assay kit; read-out: PARP-1 activity in vitro IC50 nM)
Measured Property: IC50 (nM)

[[record]]
record_smiles = "CC(C)(Sc1ccc(F)cc1)C(=O)N1CCN(C(=O)c2cc(Cc3n[nH]c(=O)c4ccccc34)ccc2F)CC1"
assay_target = "PARP-1 (Homo sapiens, UniProt P09874)"
measured_property = "IC50"
reported_value = 5.3

[[record]]
record_smiles = "CC(C)(Nc1ccccc1)C(=O)N1CCN(C(=O)c2cc(Cc3n[nH]c(=O)c4ccccc34)ccc2F)CC1"
assay_target = "PARP-1 (Homo sapiens, UniProt P09874)"
measured_property = "IC50"
reported_value = 3.56

[[record]]
record_smiles = "CC(C)(Sc1ccccc1)C(=O)N1CCN(C(=O)c2cc(Cc3n[nH]c(=O)c4ccccc34)ccc2F)CC1"
assay_target = "PARP-1 (Homo sapiens, UniProt P09874)"
measured_property = "IC50"
reported_value = 10.6

[[record]]
record_smiles = "CC(C)(Oc1ccc(F)cc1F)C(=O)N1CCN(C(=O)c2cc(Cc3n[nH]c(=O)c4ccccc34)ccc2F)CC1"
assay_target = "PARP-1 (Homo sapiens, UniProt P09874)"
measured_property = "IC50"
reported_value = 6.43

